Could you please report measured T/C for the items listed next?
- Test system: B6C3F1 mice, B16 melanoma ip, median survival T/C
- protocol: NCI In Vivo Anticancer Drug Screen. Data for tumor model B16 Melanoma (intraperitoneal) in B6C3F1 mice
- experimental parameters: endpoint: median survival time; dose: 10.0 mg/kg/injection; schedule: Q01DX009 (ip); vehicle: saline; higher = longer survival
Inconclusive results and toxic doses are left out.

Example compounds with recorded T/C:
Query :: Dear colleague, I am looking for the recorded T/C of the following compound: NC1C(O)C(O)C(Nc2ncnc3nc[nH]c23)OC1C(O)CO (centres undefined)
Result :: 99 % of control

Query :: Dear colleague, I am looking for the recorded T/C of the following compound: COc1cc2c(c(OC)c1OC)-c1cccc(=O)cc1C(NC(C)=O)CC2 (centres undefined)
Result :: 116 % of control

Query :: Dear colleague, I am looking for the recorded T/C of the following compound: `c1ccc(-c2nn(-c3ccccc3)[n+](-c3ccccc3-c3ccccc3)n2)cc1`
Result :: 99 % of control

Below: the item to evaluate.
Query :: Dear colleague, I am looking for the recorded T/C of the following compound: CC1CCOS(=O)O1 (centres undefined)
Result :: 104 % of control
